- Test system: human pancreatic β-cells
- assay-remarks: Insulin secretion from human islet β cells (ELISA of supernatant)
- Assay type: cell-based
- condition-summary: 50 nM, 6 h
Each entry gets label 0 if its Insulin stays under 0.5 ng/mL, and label 1 if its Insulin is 0.5 ng/mL or above.

- CCCCCC(=O)OC(C)C(N)C(=O)O (stereo not drawn): label 1
- CCCCCCCCCC(=O)NCCCCC(N)C(=O)O (stereo not drawn): label 1
- CCCC(=O)OCC(N)C(=O)O (stereo not drawn): label 1
- NC(CCCCNC(=O)CCCCCCCCCCCCCCCCCCC(=O)O)C(=O)O (stereo not drawn): label 0

Continue with the compound presented below.
// inclusive: Insulin at least 0.5 ng/mL? input: CCCCCCCCCCCCCCCCCC(=O)OCC(N)C(=O)O (stereo not drawn) label 0

----------
- System: Hela cells
- assay-remarks: Cell membrane fluidity (Laurdan fluorescence recovery) in Hela cells
- Type: cell-based
- condition-summary: 2 nM, 20 s
quantity-measured: Fluorescence recovery rate % (%)
Numbers only, in %.

These solved cases illustrate the format of a correct answer.
- O=C(O)CCCCCCC(=O)O [octanedioic acid]: 63.58
- CCC=CCC=CCC=CCCCCCCCC(=O)OCC1OC(O)C(O)C(O)C1O (stereo not shown) [Glucose-linolenic acid]: 63.78
- CCCCCCCCCCCCCCCCCC(=O)NCCCCC(N)C(=O)O (stereo not shown) [Lys-stearic acid]: 64.38
- CCCCCCCCC=CCCCCCCCC(=O)OCC(O)C1OC(=O)C(O)=C1O (stereo not shown) [Vc-oleic acid]: 61.48
- CCCCCCCC(=O)O [n-octanoic acid]: 65.57
- CCC=CCC=CCC=CCC=CCC=CCCCC(=O)NC(CO)C(=O)O (stereo not shown) [Ser-EPA, Serine-EPA]: 63.44

Moving on to another molecule below.
Short answer please: Fluorescence recovery rate %, Hela cells, entry CCC=CCC=CCC=CCC=CCC=CCC=CCCC(=O)OC(C)C(N)C(=O)O (stereo not shown) 65.48

----------
- Test system: Epithelial cells
- assay-remarks: Interaction of GFP-labelled complexes with cell membrane of epithelial cells (Example II-52, Table II-30)
- Format: cell-based
- condition-summary: 12 Hours after medium replaced; GFP-labelled complex, epithelial cells pretreated 4 hours, n=3
- Experimental: The fatty acids were combined with water-soluble small molecules to form a complex, which were labeled with GFP fluorescence to detect cell membrane fluorescence. […] After the cells were stably adhered, the water-soluble fatty acid complexes in the following table were added to the cell culture medium. […] The medium with the drug was pipetted and replaced with normal DMEM medium. […] The green fluorescence intensity was analyzed by imageJ (see Table II-30, n=3).
The following ranges of Mean fluorescence intensity define the classes used here: low class: < 40; middle class: ≥ 40 and < 50; high class: ≥ 50

- CCCCCCCC(=O)NCCCCC(N)C(=O)O (centres unmarked): low class
- CCCCCCCCC/C=C/C(=O)OCC1OC(O)C(O)C(O)C1O (centres unmarked): middle class
- CCC/C=C/C(=O)OCC(N)C(=O)O (centres unmarked): low class
- NC(COC(=O)CCCCCCCCCCCCCCCCC(=O)O)C(=O)O (centres unmarked): high class
- C=CCCCCCCCCC(=O)NCCCCC(N)C(=O)O (centres unmarked): high class
- CCCCCCCCCCCCC(=O)OC(C)C(N)C(=O)O (centres unmarked): middle class

Category lookup for the compound NC(COC(=O)CCCCCCCCCCC(=O)O)C(=O)O (centres unmarked) high class

Next up: CC/C=C\C/C=C\C/C=C\C/C=C\C/C=C\C/C=C\CCC(=O)OCC(O)C1OC(=O)C(O)=C1O (centres unmarked) middle class

Further, for O=C(O)CCCCCCCCCC(=O)OCC(O)C1OC(=O)C(O)=C1O (centres unmarked) ? middle class

Also CCCCCCCCC(=O)OCC(O)C1OC(=O)C(O)=C1O (centres unmarked) , if possible. low class

# repeat for CCCCCC=CCC=CCCCCCCCC(=O)OC(C)C(N)C(=O)O (centres unmarked) middle class

Same question for CCCCCCCCCCC(=O)OC(C)C(N)C(=O)O (centres unmarked) please. low class

Same again, this time with CCCCCCCCCCCCCCCCCC(=O)NCCCCC(N)C(=O)O (centres unmarked) middle class

----------
- Tested on: Hela cells
- assay-remarks: Cell membrane fluidity (Laurdan fluorescence recovery) in Hela cells
- Type: cell-based
- condition-summary: 10 nM, 40 s
quantity-measured: Fluorescence recovery rate % (%)
One number for each entry, in %.

* CCCCCCCCC=CCCCCCCCC(=O)OCC(O)C1OC(=O)C(O)=C1O (stereo not shown) | 63.75
* CCCCCCCC(=O)O | 65.23
* CCC=CCC=CCC=CCCCCCCCC(=O)OCC1OC(O)C(O)C(O)C1O (stereo not shown) | 64.87

What does the data say about its Fluorescence recovery rate %? Entry: `O=C(O)CCCCCCC(=O)O` 64.23

----------
Exercise: for every item that follows, state its recorded Fluorescence intensity.
- Test system: 293T cells
- assay-remarks: Cellular phagocytosis of DiD-loaded lipid vesicles (nano-drugs) by 293T cells (Example II-51, Table II-29)
- Type: cell-based
- condition-summary: 50 nM; 293T cells pretreated 4 h, DiD lipid vesicles 2 h; n=3; untreated control 226.46 ± 1.26
Numbers only.

Hi there! I need Fluorescence intensity for each item below, if you can.
1. C/C=C/C(=O)O
2. CCCCCC=CCC=CCCCCCCCC(=O)OCC(N)C(=O)O (stereo not drawn)
3. O=C(O)CCCCCCC(=O)O

[51.34, 51.34, 50.66]

----------
- Test system: Epithelial cells
- assay-remarks: Interaction of GFP-labelled complexes with cell membrane of epithelial cells (Example II-52, Table II-30)
- Assay type: cell-based
- condition-summary: 24 Hours after medium replaced; GFP-labelled complex, epithelial cells pretreated 4 hours, n=3
Answer each item with its documented Mean fluorescence intensity.
One number for each entry.

• CCC/C=C/C(=O)OCC(N)C(=O)O (stereo not drawn) = 29.8
• CCCCCCCCCCCCCCCCCC(=O)NCCCCC(N)C(=O)O (stereo not drawn) = 39.0
• CCCCCCCCCC(=O)OCC(N)C(=O)O (stereo not drawn) = 39.5

Answer for every listed entry: what is its Mean fluorescence intensity? The entries follow.
1. CCCCCCCCCCCCC(=O)OC(C)C(N)C(=O)O (stereo not drawn)
2. CC=CC(=O)NCCCCC(N)C(=O)O (stereo not drawn)

1. 39.0
2. 40.4

Could you share which Mean fluorescence intensity value was measured for CCCC(=O)OC(C)C(N)C(=O)O (stereo not drawn) ? 30.67

The origin of these recorded values is patent US20260166162A1.
